Test: decreased DLD-1 cellular survival, CellTiter-Glo luminescent readout, NPC compound collection, primary HTS (AID 1117346)
Details: DLD-1 viability, CellTiter-Glo luminescence; at 20 µM (top of the series)
Calls of active or inactive are those of the source.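 Rule for the calls: active = compounds that lower survival of DLD-1 colon cancer cells in the luminescence readout, no cutoff given; inactive = the rest.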
Outcomes you can answer with include only these: 1 for active, -1 for inactive

1. CC(=O)c1cc2ccccc2s1 : -1
2. CO[C@@H]1[C@@H](O[C@@H]2O[C@H](C)[C@@H](O[C@H]3C[C@@](C)(O)[C@@H](O)[C@H](C)O3)[C@H](N(C)C)[C@H]2O)[C@@H](CC=O)C[C@@H](C)[C@@H](O[C@@H]2CC[C@H](N(C)C)[C@@H](C)O2)/C=C/C=C/C[C@@H](C)OC(=O)C[C@H]1OC(C)=O : -1
3. O=C(O)CCCc1ccccc1 : -1
4. CC(C)=CCOc1ccc(/C=C/C(=O)c2ccc(OCC=C(C)C)cc2OCC(=O)O)cc1 : 1

**Q:** Look up the recorded call for CC(C)=CCC/C(C)=C/CC/C(C)=C/CCC(=O)OC/C=C(\C)CCC=C(C)C in this test.
**A:** -1

###

System: F380Y/beta2Delta
Assay: modulators of BK channel variants, profiling panel, selectivity assay, cell-based, U2OS BacMam, thallium flux, beta subunits (AID 1259406);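 note: initial slope of Thallos dye fluorescence rise after thallium is added; log ratio against the mean of 0.3% DMSO vehicle wells on the same plate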
Settings: at 30 µM
Activity calls are given as the source filed them.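 The calls were made as follows: active = thallium flux through the channel raised or lowered by more than 3 SD from vehicle-only wells, actives on both sides; inactive = the rest.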
Parameter call: string, one of active, inactive

**Q:** Could you check what this test reported for O=C1NC(=O)C(c2ccccc2)(c2ccccc2)N1 ?
**A:** inactive

**Q:** For this compound, state the assay outcome: CCCNC(C)C(=O)Nc1ccccc1C (stereo not given)
**A:** inactive

###

Assay: decreased DLD-1 cellular survival, CellTiter-Glo luminescent readout, NPC compound collection, primary HTS (AID 1117346)
Details: DLD-1 viability, CellTiter-Glo luminescence; at 20 µM (top of the series)
viability decrease (inhibition) listing for selected molecules.
Expressed in %, but write only the number.

Would you please look over these solved cases?
1) CCCC(=O)O[C@]1(C(=O)COC(=O)CC)CC[C@H]2[C@@H]3CCC4=CC(=O)CC[C@]4(C)[C@H]3[C@@H](O)C[C@@]21C : -2
2) Cc1ccc(Cl)c(Nc2ccccc2C(=O)O)c1Cl : 78.5
3) CCCCCCCCCCCCCCCC(=O)OC(C)C : -1.5
4) Cc1c(OCC(F)(F)F)ccnc1CS(=O)c1nc2ccccc2[nH]1 (stereo not given) : -8.8

**Q:** Read the entry OC(CCN1CCCC1)(c1ccccc1)C1CCCCC1 (stereo not given) and write its reported viability decrease (inhibition).
**A:** 10.7

**Q:** Note viability decrease (inhibition) for the molecule shown: O=C(NCCc1c[nH]c2ccccc12)c1cccnc1
**A:** -0.95

###

The entries below are paired with their reported viability.
Assay: ovarian cancer cell viability with rucaparib, profiling panel, oncology-focused library, rucaparib conditional (AID 1508598)
Details: patient-derived ovarian cancer cells, CellTiter-Glo viability, 144 h; at 0.313 µM; OCI-C5x cells; without rucaparib; stronger effect = lower value
Give just the numeric value; % need not be written.

1) CCCCCCNC(=O)n1cc(F)c(=O)[nH]c1=O : 112

**Q:** State its viability: Cc1ccc(-c2cc(C(F)(F)F)nn2-c2ccc(S(N)(=O)=O)cc2)cc1
**A:** 110

**Q:** Look up and state reported viability for O=c1[nH]cc(F)c(=O)[nH]1
**A:** 105

**Q:** Complete the entry with viability for CC1=C(/C=C/C(C)=C/C=C/C(C)=C/C(=O)O)C(C)(C)CCC1
**A:** 114

**Q:** Hello, please tell me recorded viability for this one: CC(C)C(=O)Nc1ccc([N+](=O)[O-])c(C(F)(F)F)c1
**A:** 109

**Q:** Let me know recorded viability for O=c1[nH]cnc2[nH]ncc12 , thanks.
**A:** 117
